- Tested on: 485368-065-R4-J2-PDC spheroids with HUVEC/MSC, viability;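 also: spheroids exposed to compounds for seven days; 100% = DMSO vehicle control wells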
- test summary: Anticancer human tumor 485368-065-R4-J2-PDC patient-derived pancreatic carcinoma cell line growth inhibition [CLK]
- applied conditions: second compound 3.16 µM; first compound 0.316 µM; hits give low values

- molecule: "COC1C=CCC(C)C(C)S(=O)(=O)NC(=O)c2ccc3c(c2)N(CC2CCC21)CC1(CCCc2cc(Cl)ccc21)CO3 (centres undefined) + CN1CCN(c2cc(C(=O)Nc3cc4cc(-c5cnn(C)c5)ccc4cn3)ccn2)CC1"
  viability, T/C: "1.27%"
- molecule: "CC1COCCN1c1cc(C2(S(C)(=N)=O)CC2)nc(-c2ccnc3[nH]ccc23)n1 (centres undefined) + CN1CCN(c2cc(C(=O)Nc3cc4cc(-c5cnn(C)c5)ccc4cn3)ccn2)CC1"
  viability, T/C: "2.68%"
- molecule: "CC(=O)O[C@H]1C(=O)[C@@]2(C)[C@H]([C@H](OC(=O)c3ccccc3)[C@]3(O)C[C@H](OC(=O)[C@H](O)[C@@H](NC(=O)c4ccccc4)c4ccccc4)C(C)=C1C3(C)C)[C@]1(OC(C)=O)CO[C@@H]1C[C@@H]2O + CN1CCN(c2cc(C(=O)Nc3cc4cc(-c5cnn(C)c5)ccc4cn3)ccn2)CC1"
  viability, T/C: "1.31%"
- molecule: "CCCS(=O)(=O)Nc1ccc(F)c(C(=O)c2c[nH]c3ncc(-c4ccc(Cl)cc4)cc23)c1F + CNC(=O)c1ccc(Nc2nc(OC3CCCC3)c3c(-c4ccc5nc(C)oc5c4)c[nH]c3n2)c(OC)c1"
  viability, T/C: "85.4%"
- molecule: "CC(=O)O[C@H]1C(=O)[C@@]2(C)[C@H]([C@H](OC(=O)c3ccccc3)[C@]3(O)C[C@H](OC(=O)[C@H](O)[C@@H](NC(=O)c4ccccc4)c4ccccc4)C(C)=C1C3(C)C)[C@]1(OC(C)=O)CO[C@@H]1C[C@@H]2O + CNC(=O)c1ccc(Nc2nc(OC3CCCC3)c3c(-c4ccc5nc(C)oc5c4)c[nH]c3n2)c(OC)c1"
  viability, T/C: "86.4%"
- molecule: "O=c1[nH]cc(F)c(=O)[nH]1 + CN1CCN(c2cc(C(=O)Nc3cc4cc(-c5cnn(C)c5)ccc4cn3)ccn2)CC1"
  viability, T/C: "1.09%"
- molecule: "CC(CO)NC(=O)c1cc(-c2ccc(Cl)cc2)nn(-c2cnn(C)c2)c1=O (centres undefined) + CN1CCN(c2cc(C(=O)Nc3cc4cc(-c5cnn(C)c5)ccc4cn3)ccn2)CC1"
  viability, T/C: "1.34%"
- molecule: "COc1ccc([C@@H](O)c2cc(-c3ncnc4cc(N5CCOCC5)ccc34)c(F)cc2Cl)nn1 + CNC(=O)c1ccc(Nc2nc(OC3CCCC3)c3c(-c4ccc5nc(C)oc5c4)c[nH]c3n2)c(OC)c1"
  viability, T/C: "68.8%"
- molecule: "CC1(C)CCC(CN2CCN(c3ccc(C(=O)NS(=O)(=O)c4ccc(NCC5CCOCC5)c([N+](=O)[O-])c4)c(Oc4cnc5[nH]ccc5c4)c3)CC2)=C(c2ccc(Cl)cc2)C1 + CN1CCN(c2cc(C(=O)Nc3cc4cc(-c5cnn(C)c5)ccc4cn3)ccn2)CC1"
  viability, T/C: "2.68%"
- molecule: "CCN1CCN(Cc2ccc(Nc3ncc(F)c(-c4cc(F)c5nc(C)n(C(C)C)c5c4)n3)nc2)CC1 + CNC(=O)c1ccc(Nc2nc(OC3CCCC3)c3c(-c4ccc5nc(C)oc5c4)c[nH]c3n2)c(OC)c1"
  viability, T/C: "60.2%"
- molecule: "C=C(F)C(=O)N1CCN(c2nc(OCC3CCCN3C)nc3c2CCN(c2cccc4cccc(Cl)c24)C3)CC1CC#N (centres undefined) + CNC(=O)c1ccc(Nc2nc(OC3CCCC3)c3c(-c4ccc5nc(C)oc5c4)c[nH]c3n2)c(OC)c1"
  viability, T/C: "76.1%"
- molecule: "O=C(c1cc(Cc2n[nH]c(=O)c3ccccc23)ccc1F)N1CCN(C(=O)C2CC2)CC1 + CNC(=O)c1ccc(Nc2nc(OC3CCCC3)c3c(-c4ccc5nc(C)oc5c4)c[nH]c3n2)c(OC)c1"
  viability, T/C: "72.9%"
- molecule: "CC(CO)NC(=O)c1cc(-c2ccc(Cl)cc2)nn(-c2cnn(C)c2)c1=O (centres undefined) + CNC(=O)c1ccc(Nc2nc(OC3CCCC3)c3c(-c4ccc5nc(C)oc5c4)c[nH]c3n2)c(OC)c1"
  viability, T/C: "71%"
- molecule: "CCc1c2c(nc3ccc(O)cc13)-c1cc3c(c(=O)n1C2)COC(=O)[C@]3(O)CC + CN1CCN(c2cc(C(=O)Nc3cc4cc(-c5cnn(C)c5)ccc4cn3)ccn2)CC1"
  viability, T/C: "14.1%"
